// provenance: paper PMC5540273

Tested on: YANK2
Construct: gene STK32B
Settings: concentration: 1 μM, replicates: in singlicate; n = 1;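 also: KINOMEscan kinase panel screen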
Assign %Inh to each entry below.
One number for each entry, in %.

Please go through the list and note %Inh for each molecule.
1. Cc1cc(Nc2nc(-c3cccc(C)n3)nc3ccccc23)ccn1 [GW872411]
2. O=C(Nc1n[nH]c2cc(-c3ccccc3F)ccc12)C1CC1 [SB-733371]
3. CCC(=O)c1c(-c2ccccc2)c2cc(Cl)ccc2c(=O)n1Cc1cc(S(C)(=O)=O)n(CC(F)F)n1

0
0
8

---

Test system: PAK6
Conditions: concentration: 1 μM, replicates: in singlicate; n = 1
Param label: returns MET when %Inh < 1%, returns NOT MET otherwise, including exact equality.

Molecule: COc1cc(Nc2nccc(N3CCC(NC(=O)C4COc5ccccc5O4)C3)n2)cc(OC)c1OC (stereo not drawn)
Target or test system: PAK6
Label: MET
//
Molecule: COC(=O)c1c(-c2ccccc2)c2cc(C)ccc2c(=O)n1Cc1ccccc1
Target or test system: PAK6
Label: NOT MET
//
Molecule: O=C(Nc1ccc2c(c1)OCO2)NC1CCN(c2ccnc(NCc3ccc(F)cc3)n2)CC1
Target or test system: PAK6
Label: MET
//
Molecule: COc1cc(OC)cc(-c2cc3cnc(N)nc3nc2NC(=O)NC(C)(C)C)c1
Target or test system: PAK6
Label: MET

Criterion: %Inh strictly below 1%. Is it met by `O=C(NCCNc1ccnc(Nc2ccc(F)cc2)n1)Nc1ccc2c(c1)OCO2` ?
NOT MET

Criterion: %Inh strictly below 1%. Is it met by `COc1cc(Nc2ccnc3ccc(C(F)(F)F)cc23)cc(OC)c1OC` ?
MET

---

Tested on: CDK4
Conditions: concentration: 1 μM, replicates: in singlicate; n = 1
Param label: returns Criterion met when %Inh < 1%, returns Criterion not met otherwise, including exact equality.

Criterion: %Inh strictly below 1%. Is it met by C[C@@H]1CC[C@H](C(=O)NC2CCCCC2)CN1c1cc(-c2ccc3c(N)n[nH]c3c2)nc(N)n1 [GSK2291363] ?
Criterion not met

Criterion: %Inh strictly below 1%. Is it met by `COc1cc(OC)cc(-c2cc3cnc(N)nc3nc2NC(=O)NC(C)(C)C)c1` ?
Criterion met

Criterion: %Inh strictly below 1%. Is it met by `COc1ccc(-c2coc3ccc(-c4nnc(SCc5cccc(C#N)c5)o4)cc23)cc1` ?
Criterion met

Criterion: %Inh strictly below 1%. Is it met by `COc1ccc(-c2cc3c(C)nc(N)nc3n([C@H]3CC[C@H](OCCO)CC3)c2=O)cn1` ?
Criterion met

Criterion: %Inh strictly below 1%. Is it met by `Cc1ccc(Oc2ccc(Nc3ncnc4cc[nH]c34)cc2C)cn1` ?
Criterion not met

Criterion: %Inh strictly below 1%. Is it met by Nc1nccc2scc(-c3ccc4c(c3)CCN4C(=O)Cc3ccccc3)c12 [GSK2576924] ?
Criterion not met

Criterion: %Inh strictly below 1%. Is it met by Cc1cccc(-c2cc(-c3c[nH]nc3-c3ccccn3)ccn2)c1 [GW679395] ?
Criterion met

Criterion: %Inh strictly below 1%. Is it met by CN1C(=O)C(Nc2cc(Cl)c(O)c(Cl)c2)=C(c2ccc(Cl)cc2)C1=O [SB-404321] ?
Criterion not met

Criterion: %Inh strictly below 1%. Is it met by COc1cc(Nc2nccc(N3CCC(NC(=O)C(C)c4ccc(Cl)cc4)C3)n2)cc(OC)c1OC (stereo not shown) [GSK1379757] ?
Criterion not met

Criterion: %Inh strictly below 1%. Is it met by Nc1ncnc2c1ncn2-c1cccc2ccccc12 [SKF-97184] ?
Criterion not met

Criterion: %Inh strictly below 1%. Is it met by Nc1nc(N)c2nc(-c3ccccc3)[nH]c2n1 [SKF-12778] ?
Criterion met

Criterion: %Inh strictly below 1%. Is it met by CCS(=O)(=O)c1ccc(OC)c(Nc2ncc(-c3ccc(F)cc3)o2)c1.Cl [GW591947] ?
Criterion not met

Criterion: %Inh strictly below 1%. Is it met by COc1ccc(-n2cnc3c(N)ncnc32)cc1 [SKF-97236] ?
Criterion not met

Criterion: %Inh strictly below 1%. Is it met by O=C(NCCNc1ccnc(Nc2ccc(F)cc2)n1)Nc1ccc2c(c1)OCO2 [GSK1379882] ?
Criterion not met

Criterion: %Inh strictly below 1%. Is it met by FC(F)(F)c1ccc(-c2ncn(CCCN3CCOCC3)c2-c2ccncc2)cc1 [SB-217780] ?
Criterion not met

Criterion: %Inh strictly below 1%. Is it met by CCn1c(-c2ccoc2)nc2cnccc21 [SB-733887] ?
Criterion met

Criterion: %Inh strictly below 1%. Is it met by CN(C)c1cc(-c2ccc3c(N)n[nH]c3c2)nc(N)n1 [GSK2219329] ?
Criterion met

Criterion: %Inh strictly below 1%. Is it met by Cl.c1ccc(Cn2cnc3cc(Nc4ncnc5ccccc45)ccc32)cc1 [GW272142] ?
Criterion not met
